measurement conditions: in ethanol, 318.15 K

molecule smiles	solubility (mole fraction)
O=C(O)CCCc1c[nH]c2ccccc12	0.141

====

measurement conditions: in isopentanol, 283.15 K
property name: solubility (mole fraction)

molecule smiles	property name	number
O=C(O)CCCc1c[nH]c2ccccc12	solubility (mole fraction)	0.0309

====

measurement conditions: in isopropanol, 308.15 K
property name: solubility (mole fraction)

molecule smiles	property name	number
O=C(O)CCCc1c[nH]c2ccccc12	solubility (mole fraction)	0.0984

====

measurement conditions: in isopropanol, 298.15 K
property name: solubility (mole fraction)

molecule smiles	number
O=C(O)CCCc1c[nH]c2ccccc12	0.0724

====

measurement conditions: in methyl acetate, 318.15 K

molecule smiles	solubility (mole fraction)
O=C(O)CCCc1c[nH]c2ccccc12	0.154

====

measurement conditions: in ethyl lactate, 298.15 K

molecule smiles	solubility (mole fraction)
O=C(O)CCCc1c[nH]c2ccccc12	0.128

====

measurement conditions: in isobutanol, 313.15 K

molecule smiles	solubility (mole fraction)
O=C(O)CCCc1c[nH]c2ccccc12	0.0697

====

measurement conditions: in methanol, 298.15 K

molecule smiles	solubility (mole fraction)
O=C(O)CCCc1c[nH]c2ccccc12	0.0777

====

measurement conditions: in isopropyl acetate, 298.15 K
property name: solubility (mole fraction)

molecule smiles	number
O=C(O)CCCc1c[nH]c2ccccc12	0.0813

====

measurement conditions: in isobutanol, 298.15 K
property name: solubility (mole fraction)

molecule smiles	number
O=C(O)CCCc1c[nH]c2ccccc12	0.0379

====

measurement conditions: in n-butanol, 303.15 K

molecule smiles	solubility (mole fraction)
O=C(O)CCCc1c[nH]c2ccccc12	0.0688

====

measurement conditions: in acetonitrile, 298.15 K

molecule smiles	solubility (mole fraction)
O=C(O)CCCc1c[nH]c2ccccc12	0.0814

====

measurement conditions: in isobutyl acetate, 308.15 K

molecule smiles	solubility (mole fraction)
O=C(O)CCCc1c[nH]c2ccccc12	0.0736

====

measurement conditions: in ethyl lactate, 323.15 K

molecule smiles	solubility (mole fraction)
O=C(O)CCCc1c[nH]c2ccccc12	0.22

====

measurement conditions: in methanol, 293.15 K

molecule smiles	solubility (mole fraction)
O=C(O)CCCc1c[nH]c2ccccc12	0.0656

====

measurement conditions: in isobutanol, 283.15 K

molecule smiles	solubility (mole fraction)
O=C(O)CCCc1c[nH]c2ccccc12	0.0213

====

measurement conditions: in ethyl lactate, 318.15 K

molecule smiles	solubility (mole fraction)
O=C(O)CCCc1c[nH]c2ccccc12	0.19

====

measurement conditions: in 2-butanone, 298.15 K

molecule smiles	solubility (mole fraction)
O=C(O)CCCc1c[nH]c2ccccc12	0.168

====

measurement conditions: in isopropanol, 303.15 K

molecule smiles	solubility (mole fraction)
O=C(O)CCCc1c[nH]c2ccccc12	0.0859

====

measurement conditions: in isopropyl acetate, 283.15 K
property name: solubility (mole fraction)

molecule smiles	number
O=C(O)CCCc1c[nH]c2ccccc12	0.0492

====

measurement conditions: in n-propanol, 323.15 K
property name: solubility (mole fraction)

molecule smiles	number
O=C(O)CCCc1c[nH]c2ccccc12	0.139

====

measurement conditions: in dimethyl carbonate, 313.15 K

molecule smiles	solubility (mole fraction)
O=C(O)CCCc1c[nH]c2ccccc12	0.0644

====

measurement conditions: in 2-butanone, 323.15 K

molecule smiles	solubility (mole fraction)
O=C(O)CCCc1c[nH]c2ccccc12	0.264
